These measurements were taken from patent US12466827B2.

Molecular target: human recombinant HDAC6 (Homo sapiens)
Construct: purchased Calbiochem Inc. 382180
Sequence (Q9UBN7 whole entry): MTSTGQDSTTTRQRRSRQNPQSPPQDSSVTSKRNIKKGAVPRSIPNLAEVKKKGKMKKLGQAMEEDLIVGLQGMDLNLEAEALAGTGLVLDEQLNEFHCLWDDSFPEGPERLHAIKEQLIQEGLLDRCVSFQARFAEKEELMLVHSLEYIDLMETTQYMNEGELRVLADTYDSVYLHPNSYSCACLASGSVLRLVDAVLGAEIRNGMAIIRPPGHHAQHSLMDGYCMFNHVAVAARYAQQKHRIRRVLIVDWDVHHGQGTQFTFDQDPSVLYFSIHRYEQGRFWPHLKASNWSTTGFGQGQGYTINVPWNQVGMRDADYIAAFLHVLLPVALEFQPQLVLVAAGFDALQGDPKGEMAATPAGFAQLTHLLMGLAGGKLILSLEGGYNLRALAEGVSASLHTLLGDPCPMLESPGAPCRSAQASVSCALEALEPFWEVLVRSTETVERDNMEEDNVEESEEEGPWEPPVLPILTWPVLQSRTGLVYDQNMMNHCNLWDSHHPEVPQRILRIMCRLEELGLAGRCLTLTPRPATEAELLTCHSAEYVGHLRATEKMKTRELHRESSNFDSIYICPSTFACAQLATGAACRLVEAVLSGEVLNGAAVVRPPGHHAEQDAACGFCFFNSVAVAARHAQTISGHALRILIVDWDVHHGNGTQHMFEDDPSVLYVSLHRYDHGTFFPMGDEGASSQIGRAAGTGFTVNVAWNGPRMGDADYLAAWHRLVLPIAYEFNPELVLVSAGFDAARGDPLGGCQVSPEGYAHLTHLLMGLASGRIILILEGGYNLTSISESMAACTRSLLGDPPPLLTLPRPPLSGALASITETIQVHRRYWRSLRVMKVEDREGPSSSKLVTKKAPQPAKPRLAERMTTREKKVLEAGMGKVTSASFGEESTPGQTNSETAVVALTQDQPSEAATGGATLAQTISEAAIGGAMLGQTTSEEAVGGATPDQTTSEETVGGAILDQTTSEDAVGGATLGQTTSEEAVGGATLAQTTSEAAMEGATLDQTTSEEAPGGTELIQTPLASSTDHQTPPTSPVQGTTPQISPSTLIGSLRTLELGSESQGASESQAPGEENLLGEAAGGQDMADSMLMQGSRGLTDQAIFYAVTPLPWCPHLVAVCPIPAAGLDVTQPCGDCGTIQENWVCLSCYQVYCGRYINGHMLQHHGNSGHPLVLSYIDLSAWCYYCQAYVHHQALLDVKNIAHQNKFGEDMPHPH
Assay: In vitro HDAC enzyme activity inhibition assay (HDAC6)
Assay type: biochemical
Conditions: HDAC6 over HDAC1
endpoint label: HDAC6 selectivity (fold)

compound	HDAC6 selectivity (fold)
CC(=O)N1CCN(S(=O)(=O)N(Cc2cn3ccc(-c4nnc(C(F)F)o4)cc3n2)c2ccccc2)CC1 [Compound 4265]	585 fold
CC(CO)N1CCC(S(=O)(=O)N(Cc2cn3ccc(-c4nnc(C(F)F)o4)cc3n2)c2ccccc2)CC1 (stereo not shown) [Compound 4216]	420 fold
O=S(=O)(C1CCN(C2CCC2)CC1)N(Cc1cn2ccc(-c3nnc(C(F)F)o3)cc2n1)c1ccccc1 [Compound 4217]	410 fold
O=C(C1CCC1)N1CCN(S(=O)(=O)N(Cc2cn3ccc(-c4nnc(C(F)F)o4)cc3n2)c2ccccc2)CC1 [Compound 4268]	389 fold
O=S(=O)(C1CCN(C2CCCCC2)CC1)N(Cc1cn2ccc(-c3nnc(C(F)F)o3)cc2n1)c1ccccc1 [Compound 4218]	433 fold
O=S(=O)(N1CCN(C2CCC2)CC1)N(Cc1cn2ccc(-c3nnc(C(F)F)o3)cc2n1)c1ccccc1 [Compound 4260]	573 fold

Note: attention shifts to another entry.
Query :: Query (compound): CN(C)C(=O)N1CCN(S(=O)(=O)N(Cc2cn3ccc(-c4nnc(C(F)F)o4)cc3n2)c2cccc(F)c2)CC1 [Compound 4314] ; field requested: HDAC6 selectivity (fold)
Result :: 462 fold
